The following molecules are shown together with reported pEC50 values.
target: ligand binding domain of human FXR (Homo sapiens (Human), UniProt Q96RI1); assay: FXR ligand binding assay (LanthaScreen TR-FRET, SRC2-2 peptide recruitment); conditions: -log EC50, concentration required to produce 50% activation
Sequence (Q96RI1 262-486): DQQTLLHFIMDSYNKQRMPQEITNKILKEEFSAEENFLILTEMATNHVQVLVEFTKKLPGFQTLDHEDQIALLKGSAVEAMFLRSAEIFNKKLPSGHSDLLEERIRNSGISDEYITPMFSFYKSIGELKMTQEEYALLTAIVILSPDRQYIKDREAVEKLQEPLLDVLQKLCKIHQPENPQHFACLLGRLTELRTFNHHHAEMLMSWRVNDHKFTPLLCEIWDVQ

molecule	subject_of_test	pEC50
CC[C@H]1[C@H]2C[C@H](C[C@@H]2OCc2c(-c3c(Cl)cccc3Cl)noc2C2CC2)N1c1ccc(C(=O)O)cc1	ligand binding domain of human FXR (Homo sapiens (Human), UniProt Q96RI1)	6.2
O=C(NCCS(=O)(=O)O)c1ccc(N2C(=O)[C@@H]3C[C@H]2C[C@H]3OCc2c(-c3c(Cl)cccc3Cl)noc2C2CC2)cc1	ligand binding domain of human FXR (Homo sapiens (Human), UniProt Q96RI1)	8.4
O=C(NS(=O)(=O)C1CC1)c1ccc(N2C[C@@H]3C[C@H]2C[C@H]3OCc2c(-c3c(Cl)cccc3Cl)noc2C2CC2)cc1F	ligand binding domain of human FXR (Homo sapiens (Human), UniProt Q96RI1)	8.8
CCCS(=O)(=O)NC(=O)c1ccc(N2C[C@@H]3C[C@H]2C[C@H]3OCc2c(-c3c(Cl)cccc3Cl)noc2C2CC2)cc1F	ligand binding domain of human FXR (Homo sapiens (Human), UniProt Q96RI1)	9
O=C(O)Cc1ccc(N2C[C@@H]3C[C@H]2C[C@H]3OCc2c(-c3c(Cl)cccc3Cl)noc2C2CC2)cc1	ligand binding domain of human FXR (Homo sapiens (Human), UniProt Q96RI1)	7.9
O=C(O)c1cc(O[C@@H]2CCOC2)c2nc(N3C[C@@H]4C[C@H]3C[C@H]4OCc3c(-c4c(Cl)cccc4Cl)noc3C3CC3)sc2c1	ligand binding domain of human FXR (Homo sapiens (Human), UniProt Q96RI1)	8.6
CS(=O)(=O)NC(=O)CCc1ccc(N2C[C@@H]3C[C@H]2C[C@H]3OCc2c(-c3c(Cl)cccc3Cl)noc2C2CC2)c(F)c1	ligand binding domain of human FXR (Homo sapiens (Human), UniProt Q96RI1)	8.4
O=C(O)C1Cc2ccc(N3C(=O)[C@@H]4C[C@H]3C[C@H]4OCc3c(-c4c(Cl)cccc4Cl)noc3C3CC3)cc2C1 (stereo partly drawn)	ligand binding domain of human FXR (Homo sapiens (Human), UniProt Q96RI1)	7
O=C(O)c1cc(OC2CC2)c2nc(N3C[C@@H]4C[C@H]3C[C@H]4OCc3c(-c4c(F)cccc4Cl)noc3C3CC3)sc2c1	ligand binding domain of human FXR (Homo sapiens (Human), UniProt Q96RI1)	8.6
O=C(O)c1ncc(N2C(=O)[C@@H]3C[C@H]2C[C@H]3OCc2c(-c3c(Cl)cccc3Cl)noc2C2CC2)cc1F	ligand binding domain of human FXR (Homo sapiens (Human), UniProt Q96RI1)	7.1
O=C(NS(=O)(=O)C1CC1)c1ccc(N2C[C@@H]3C[C@H]2C[C@H]3OCc2c(-c3ccccc3C(F)(F)F)noc2C2CC2)c(F)c1	ligand binding domain of human FXR (Homo sapiens (Human), UniProt Q96RI1)	8.5
O=C(O)c1cc(OC2CC2)c2nc(N3C[C@@H]4C[C@H]3C[C@H]4OCc3c(-c4c(Cl)cccc4Cl)noc3C3CC3)sc2c1	ligand binding domain of human FXR (Homo sapiens (Human), UniProt Q96RI1)	8.5

###

The following molecules are shown together with reported pEC50 values.
biological target: ligand binding domain of human FXR (Homo sapiens (Human)); experiment: FXR ligand binding assay (LanthaScreen TR-FRET, SRC2-2 peptide recruitment); conditions: -log EC50, concentration required to produce 50% activation
observed_property: pEC50

O=C(O)c1cc(C2CCC2)c2nc(N3C[C@H]4C[C@@H]3C[C@@H]4OCc3c(-c4c(Cl)cccc4Cl)noc3C3CC3)sc2c1 9
O=C(O)c1ccc(N2C[C@@H]3C[C@H]2C[C@H]3OCc2c(-c3c(Cl)cccc3Cl)noc2C2CC2)cc1F 8.7
O=C(NCCS(=O)(=O)C1CC1)c1ccc(N2C[C@@H]3C[C@H]2C[C@H]3OCc2c(-c3c(Cl)cccc3Cl)noc2C2CC2)cc1F 8.6

###

target: ligand binding domain of human FXR (Homo sapiens (Human), UniProt Q96RI1); test: FXR ligand binding assay (LanthaScreen TR-FRET, SRC2-2 peptide recruitment); conditions: extent of activation relative to GW4064; read-out: % Efficacy
The following compounds are shown together with reported Emax values.
observed_property: Emax (%)

compound	observed_property	reported_measurement
C[C@@H]1[C@@H]2C[C@@H](C[C@H]2OCc2c(-c3c(Cl)cccc3Cl)noc2C2CC2)N1c1ccc(C(=O)O)cc1	Emax	117
O=C(NS(=O)(=O)CC1CCOC1)c1ccc(N2C[C@@H]3C[C@H]2C[C@H]3OCc2c(-c3c(Cl)cccc3Cl)noc2C2CC2)cc1 (stereo partly drawn)	Emax	134
O=C(O)c1cc(C2CCOC2)c2nc(N3C(=O)[C@@H]4C[C@H]3C[C@H]4OCc3c(-c4c(Cl)cccc4Cl)noc3C3CC3)sc2c1 (stereo partly drawn)	Emax	112
O=C(O)c1ccc(N2C[C@@H]3C[C@H]2C[C@H]3OCc2c(-c3c(Cl)cccc3Cl)noc2C2CC2)cc1	Emax	148
CS(=O)(=O)NC(=O)c1cc(F)c2nc(N3C[C@@H]4C[C@H]3C[C@H]4OC(=O)c3c(-c4c(Cl)cccc4Cl)noc3C3CC3)sc2c1	Emax	117
O=C(O)c1cc(O[C@H]2CCOC2)c2nc(N3C[C@@H]4C[C@H]3C[C@H]4OCc3c(-c4c(Cl)cccc4Cl)noc3C3CC3)sc2c1	Emax	148

###

Target: ligand binding domain of human FXR (Homo sapiens (Human), UniProt Q96RI1)
Test: FXR ligand binding assay (LanthaScreen TR-FRET, SRC2-2 peptide recruitment)
Conditions: extent of activation relative to GW4064; read-out: % Efficacy
Protocol: The affinity of FXR ligands for the ligand binding domain of FXR was determined using a commercially available human FXR ligand binding assay (LanthaScreen, Thermofisher Cat # PV4833). […] Test compounds are dissolved in DMSO and a 3-fold serial dilution series is generated, then further diluted into assay buffer. […] The reaction is incubated at room temperature for 1 hour, then the FRET signal is measured as the ratio of the 520 nm/495 nm emission following excitation at 340 nm. […]

compound	Emax
O=C(O)c1cc(OC(F)(F)F)c2nc(N3C[C@@H]4C[C@H]3C[C@H]4OCc3c(-c4ccccc4C(F)(F)F)noc3C3CC3)sc2c1 [Compound I-20]	191%
O=C(O)c1ccc(N2C[C@@H]3C[C@H]2C[C@H]3OCc2c(-c3c(Cl)cccc3Cl)noc2C2(F)CC2)c(F)c1 [Compound I-57]	146%
Cc1cccc(Cl)c1-c1noc(C2CC2)c1CO[C@@H]1C[C@@H]2C[C@H]1CN2c1nc2c([C@@H]3CCOC3)cc(C(=O)O)cc2s1 [Compound I-273]	132%
Cc1cccc(C)c1-c1noc(C2CC2)c1CO[C@@H]1C[C@@H]2C[C@H]1CN2c1nc2c(C)cc(C(=O)O)cc2s1 [Compound I-276]	124%
Cc1cccc(Cl)c1-c1noc(C2CC2)c1CO[C@@H]1C[C@@H]2C[C@H]1CN2c1ccc(C(=O)NS(=O)(=O)C2CCOCC2)cc1 [Compound I-203]	157%
Cc1cccc(C)c1-c1noc(C2CC2)c1CO[C@@H]1C[C@@H]2C[C@H]1CN2c1ccc(C(=O)O)cc1 [Compound I-117]	113%
O=C(O)c1cc(F)c2nc(N3C[C@H]4C[C@@H]3C[C@@H]4OCc3c(-c4c(Cl)cccc4Cl)noc3C3CC3)sc2c1 [Compound I-39]	96%
O=C(O)c1cc(O[C@@H]2CCOC2)c2nc(N3C[C@@H]4C[C@H]3C[C@H]4OCc3c(-c4c(F)cccc4Cl)noc3C3CC3)sc2c1 [Compound I-268]	146%
O=C(O)c1cc(OC(F)(F)F)c2nc(N3C[C@@H]4C[C@H]3C[C@H]4OCc3c(-c4c(Cl)cccc4Cl)noc3C3(F)CC3)sc2c1 [Compound I-25]	172%
O=C(O)c1cc(OC2CC2)c2nc(N3C[C@@H]4C[C@H]3C[C@H]4OCc3c(-c4c(F)cccc4Cl)noc3C3CC3)sc2c1 [Compound I-263]	150%
O=C(NS(=O)(=O)c1cn[nH]c1)c1ccc(N2C[C@@H]3C[C@H]2C[C@H]3OCc2c(-c3c(Cl)cccc3Cl)noc2C2CC2)cc1 [Compound I-188]	150%
CCCS(=O)(=O)NC(=O)c1ccc(N2C[C@@H]3C[C@H]2C[C@H]3OC(=O)c2c(-c3c(Cl)cccc3Cl)noc2C2CC2)c(F)c1 [Compound I-49]	188%

###

target: ligand binding domain of human FXR (Homo sapiens (Human), UniProt Q96RI1); test: FXR ligand binding assay (LanthaScreen TR-FRET, SRC2-2 peptide recruitment); conditions: -log EC50, concentration required to produce 50% activation
Give Met when the value for pEC50 is at least 8. Give Not met when it is less.

N#Cc1cc(C(=O)O)ccc1N1C[C@@H]2C[C@H]1C[C@H]2OCc1c(-c2c(Cl)cccc2Cl)noc1C1CC1 Met
CS(=O)(=O)NC(=O)c1ccc(N2C[C@@H]3C[C@H]2C[C@H]3OC(=O)c2c(-c3c(Cl)cccc3Cl)noc2C2CC2)cc1 Not met
O=C(NS(=O)(=O)C1CCCCC1)c1ccc(N2C[C@@H]3C[C@H]2C[C@H]3OCc2c(-c3c(Cl)cccc3Cl)noc2C2CC2)cc1 Met
O=C(O)c1cc(OC(F)(F)F)c2nc(N3C[C@@H]4C[C@H]3C[C@H]4OC(=O)c3c(-c4ccccc4C(F)(F)F)noc3C3CC3)sc2c1 Not met
O=C(NS(=O)(=O)C1CCCC1)c1ccc(N2C(=O)[C@@H]3C[C@H]2C[C@H]3OCc2c(-c3c(Cl)cccc3Cl)noc2C2CC2)cc1 Met
CC(C)CCS(=O)(=O)NC(=O)c1ccc(N2C[C@@H]3C[C@H]2C[C@H]3OCc2c(-c3c(Cl)cccc3Cl)noc2C2CC2)c(F)c1 Met
O=C(NCCS(=O)(=O)C1CCOCC1)c1ccc(N2C[C@@H]3C[C@H]2C[C@H]3OCc2c(-c3c(Cl)cccc3Cl)noc2C2CC2)cc1F Met
